# Test system: Escherichia coli TOP10
# assay summary: shrunken log2 fold change of peptide-encoding DNA abundance (4.5 h post-induction vs induction); higher = less antimicrobial activity (less host growth inhibition)
# condition notes: time post-induction: 4.5 h; library: site-saturation at positions 5, 18, 19, 20
assay endpoint: shrunken log2 fold change

* RRIRARPPRLPRPRPRPADDPRP | 0.409
* RRIRTRPPRLPRPRPRPPPEPRP | 0.643
* RRIRERPPRLPRPRPRPNAEPRP | 0.103
* RRIRLRPPRLPRPRPRPYTDPRP | -0.348
* RRIRRRPPRLPRPRPRPNAHPRP | 0.0582
* RRIRLRPPRLPRPRPRPTACPRP | -0.0054
* RRIRARPPRLPRPRPRPKKVPRP | 0.708
* RRIRERPPRLPRPRPRPGLAPRP | 0.178
* RRIRCRPPRLPRPRPRPKAIPRP | -0.0563
* RRIRDRPPRLPRPRPRPCCLPRP | -0.146
* RRIRFRPPRLPRPRPRPCCKPRP | -0.00992
* RRIRDRPPRLPRPRPRPDNAPRP | -0.0954
* RRIRDRPPRLPRPRPRPPTFPRP | -0.158
* RRIRRRPPRLPRPRPRPGDNPRP | 0.169
* RRIRERPPRLPRPRPRPIETPRP | -0.00369
* RRIRSRPPRLPRPRPRPCCEPRP | -0.22
* RRIRDRPPRLPRPRPRPECYPRP | -0.00335
* RRIRFRPPRLPRPRPRPYNPPRP | -0.237
* RRIRTRPPRLPRPRPRPYDCPRP | -0.304
* RRIRKRPPRLPRPRPRPEPHPRP | 0.829
* RRIRYRPPRLPRPRPRPNPQPRP | -0.0909
* RRIRPRPPRLPRPRPRPKKPPRP | 0.0432
* RRIRVRPPRLPRPRPRPAWWPRP | 0.156
* RRIRRRPPRLPRPRPRPIPKPRP | 0.0997
* RRIRLRPPRLPRPRPRPDPIPRP | 0.0451
* RRIRTRPPRLPRPRPRPDTEPRP | -0.072
* RRIRPRPPRLPRPRPRPEKDPRP | -0.0428
* RRIRFRPPRLPRPRPRPFYYPRP | -0.777
* RRIRMRPPRLPRPRPRPTNQPRP | 0.279
* RRIRWRPPRLPRPRPRPSYHPRP | -0.568
* RRIRFRPPRLPRPRPRPQNNPRP | -0.656
* RRIRDRPPRLPRPRPRPCLQPRP | -0.0105

###

# Tested on: Escherichia coli TOP10;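 also: peptides expressed intracellularly from a pBAD plasmid library in pooled LB shake-flask culture, induced with 0.3% L-arabinose, DNA abundance read by NGS, three biological replicates, DESeq2 with apeglm shrinkage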
# assay summary: shrunken log2 fold change of peptide-encoding DNA abundance (4.5 h post-induction vs induction); higher = less antimicrobial activity (less host growth inhibition)
# condition notes: time post-induction: 4.5 h; library: site-saturation at positions 5, 18, 19, 20
assay endpoint: shrunken log2 fold change

• RRIRARPPRLPRPRPRPCLLPRP = 0.0509
• RRIRARPPRLPRPRPRPHNGPRP = 0.0647
• RRIRGRPPRLPRPRPRPMASPRP = 0.176
• RRIRVRPPRLPRPRPRPTYGPRP = -0.838
• RRIRVRPPRLPRPRPRPKENPRP = 0.184
• RRIRQRPPRLPRPRPRPPCNPRP = -0.115
• RRIRFRPPRLPRPRPRPRTPPRP = 0.534
• RRIRKRPPRLPRPRPRPEKSPRP = 0.0144
• RRIRVRPPRLPRPRPRPNCWPRP = 0.0329
• RRIRVRPPRLPRPRPRPHHGPRP = -0.348
• RRIRKRPPRLPRPRPRPGTVPRP = 0.0317
• RRIRCRPPRLPRPRPRPQQIPRP = -0.168
• RRIRPRPPRLPRPRPRPRLEPRP = 0.197
• RRIRHRPPRLPRPRPRPQPKPRP = 0.24
• RRIRFRPPRLPRPRPRPRMWPRP = 0.127

Source of measurements: the supplement of paper PMC9112550
